Assay: qHTS assay for identifying genotoxic compounds that show differential cytotoxicity against isogenic chicken DT40 cell lines with known DNA damage response pathways - Rad54/Ku70 mutant cell line (AID 743015); note: nearly all actives have a fitted effect of over 60% in size
Settings: DT40 Rad54/Ku70 mutant viability, CellTiter-Glo, 40 h; series mostly up to 66.8 µM
Records with an inconclusive call do not appear. The source made the active and inactive calls. Calls come from the whole dose curve; as a rule, active = well fitted cell-killing curve with a large enough effect in the repeat runs; inconclusive = weak or mixed curves; inactive = no such curve, though single readings can be large or run the other way.
Valid outcomes are listed here; reply with one: active, inactive

q: What was the test verdict on Cc1onc(-c2ccccc2Cl)c1C(=O)N[C@@H]1C(=O)N2[C@@H]1SC(C)(C)[C@@H]2C(=O)O ?
a: inactive

q: What was the test verdict on CCOC(=O)O[C@]1(C(=O)OCCl)CC[C@H]2[C@@H]3CCC4=CC(=O)C=C[C@]4(C)[C@H]3[C@@H](O)C[C@@]21C ?
a: inactive

q: What was the test verdict on CCN1/C(=C/C=C/c2sc3ccccc3[n+]2CC)Sc2ccccc21 ?
a: active

q: What was the test verdict on CC(C)(C)c1ccc(C(=O)O)cc1 ?
a: inactive

q: What was the test verdict on Cc1ccc(-n2nc(C(C)(C)C)cc2NC(=O)Nc2ccc(OCCN3CCOCC3)c3ccccc23)cc1 ?
a: active

q: What was the test verdict on CCCCCCCCCCCCCCCC(=O)OC[C@H](O)[C@H]1OC(=O)C(O)=C1O ?
a: inactive

q: What was the test verdict on CCN(C(=O)c1cc(C)cc(OC[C@H](C)Nc2ccncc2)c1)C(C)C ?
a: active

q: What was the test verdict on COc1ccc(-c2ccc3cc(C(=O)O)ccc3c2)cc1C12CC3CC(CC(C3)C1)C2 ?
a: inactive

q: What was the test verdict on Cc1ccc2oc(CN(Cc3ccccc3)C(=O)Nc3c(F)cc(F)cc3F)c(-c3ccc(Cl)cc3)c2c1 ?
a: active

q: What was the test verdict on Nc1ccc2c3c(cccc13)-c1ccccc1-2 ?
a: active

* * *

Assay: qHTS RealTime-Glo MT Cell Viability Assay in HepG2 cells - 32 hour (AID 1224877); note: nearly all actives have a fitted effect of over 55% in size
Conditions: RealTime-Glo luminescence; series mostly up to 76.8 µM
Records with an inconclusive call do not appear. Activity calls are given as the source filed them. The call rests on the fitted dose curve; in most records, active means well fitted cell-killing curve with a large enough effect in the repeat runs; inconclusive means weak or mixed curves; inactive means flat fitted curve, though single readings scatter.
Valid outcomes are listed here; reply with one: 1.0 for active, 0.0 for inactive

q: What was the test verdict on CCCCCCCCNC(C)C(O)c1ccc(SC(C)C)cc1 (stereo not given) ?
a: 1.0

q: What was the test verdict on COc1c(C)c2c(c(O)c1C/C=C(\C)CCC(=O)O)C(=O)OC2 ?
a: 0.0

q: What was the test verdict on CCC(N)(CO)CO ?
a: 0.0

q: What was the test verdict on CC(C)(C)c1ccc(C(=O)O)cc1 ?
a: 0.0

q: What was the test verdict on CO[Si](CCCNc1ccccc1)(OC)OC ?
a: 0.0

q: What was the test verdict on On1ccccc1=S ?
a: 1.0

q: What was the test verdict on CCOC(=O)O[C@]1(C(=O)OCCl)CC[C@H]2[C@@H]3CCC4=CC(=O)C=C[C@]4(C)[C@H]3[C@@H](O)C[C@@]21C ?
a: 0.0

q: What was the test verdict on C/C=C1/C(=O)C[C@H]2[C@@H]3CCC4=CC(=O)CC[C@]4(C)[C@H]3CC[C@]12C ?
a: 0.0

q: What was the test verdict on Nc1ccc2c3c(cccc13)-c1ccccc1-2 ?
a: 0.0

q: What was the test verdict on O=c1[nH]sc2ccccc12 ?
a: 1.0
